- TGT: UniProt:Q9NZC2
- TEST SUMMARY: TREM2 activity by cellular Syk phosphorylation (AlphaScreen/AlphaLISA) in TREM2/DAP12-HEK cells, used for Examples 1-305
- Type: cell-based
- Parameters: expressed in transfected cells
- RUN PARAMETERS: HEK293 Cells
QUANTITY KIND: EC50

Consider the worked cases shown below.
Cc1nc2nc(N3CCO[C@@H](c4cnn(C5CC5)c4)C3)nc([C@H]3C[C@H](C(F)(F)F)C3)c2nc1C : ≤ 0.05 µM
Cc1cc([C@H]2CN(c3nc4nc(C)c(C)nc4c([C@H]4C[C@H](C(F)(F)F)C4)n3)CCO2)ccn1 : ≤ 0.05 µM
Cc1cc2c(-c3ccc(Cl)cc3F)nc([C@@H]3CCO[C@H](c4cnn(C5CC5)c4)C3)nc2nc1C (single isomer, unassigned) : 0.05 to 0.5 µM
Cc1nc2nc(N3CCO[C@@H](c4cnn(C)c4)C3)nc([C@H]3CC[C@H](C(F)(F)F)CC3)c2nc1C : ≤ 0.05 µM
Cc1nc2nc(N3CCO[C@@H](c4cnn(C)c4)C3)nc(-c3cc(F)c(F)cc3F)c2nc1C : ≤ 0.05 µM

Next item in the queue.
**Q:** Bench note: what EC50 did Cc1nc2nc(N3CCO[C@@H](c4cnn(C)c4)C3)nc(C3=CCC(C(F)(F)F)CC3)c2nc1C (stereo partly drawn) show?
**A:** 0.05 to 0.5 µM

----------
- TGT: hTREM2 (Homo sapiens)
- TEST SUMMARY: TREM2 activity by cellular Syk phosphorylation (AlphaScreen/AlphaLISA) in TREM2/DAP12-HEK cells, used for Examples 1-305
- Type: cell-based
- Parameters: expressed in transfected cells
- RUN PARAMETERS: HEK293 Cells
- Excerpt: In vitro Measurement of Triggering Receptor Expressed on Myeloid Cells 2 activity using cellular phosphorylation of Spleen Tyrosine Kinase (“Syk”) Assays used for Examples 1-305 Pharmacological measurements of TREM2 signaling through DAP12 were made with TREM2 and DAP12 overexpressing HEK293 cells stable cell lines that had been single-cell cloned (“TREM2/DAP12-HEK”). […]
QUANTITY KIND: EC50

Consider the worked cases shown below.
Cc1nc2nc(N3CCO[C@@H](c4cnn(C)c4)C3)nc(-c3ccc(F)cc3F)c2nc1C [Example 31] : ≤ 0.05 µM
Cc1nc2nc(N3CCO[C@@H](c4cnn(C)c4)C3)nc(CCC(F)(F)F)c2nc1C [Example 40] : 0.05 to 0.5 µM

// each compound listed below needs its EC50
1. Cc1ccc2c(n1)nc(N1CCO[C@@H](c3cnn(C4CC4)c3)C1)nc2[C@H]1CC[C@@H](C(F)(F)F)CC1 [Example 144]
2. Cc1ncc([C@H]2CN(c3nc(-c4ccc(Cl)cc4F)c4nc(C)c(C)nc4n3)CCO2)cn1 (single isomer, unassigned) [Example 24]
3. Cc1nc2nc(N3CCO[C@@H](c4cnn(C)c4)C3)nc(N3CCC(F)(F)CC3)c2nc1C [Example 66]

**A:**
0.05 to 0.5 µM
0.05 to 0.5 µM
0.5 to 3 µM

----------
Assignment: determine reported pEC50 for the given compounds.
- TGT: hTREM2 (Homo sapiens, UniProt Q9NZC2)
- Sequence (Q9NZC2 19-230): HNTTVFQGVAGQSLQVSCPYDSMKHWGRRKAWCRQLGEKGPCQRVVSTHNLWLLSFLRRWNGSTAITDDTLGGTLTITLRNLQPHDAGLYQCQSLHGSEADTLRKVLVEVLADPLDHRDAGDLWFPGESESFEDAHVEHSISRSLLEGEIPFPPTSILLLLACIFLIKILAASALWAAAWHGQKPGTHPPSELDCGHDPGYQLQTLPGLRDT
- Sequence (O43914 22-113 partner): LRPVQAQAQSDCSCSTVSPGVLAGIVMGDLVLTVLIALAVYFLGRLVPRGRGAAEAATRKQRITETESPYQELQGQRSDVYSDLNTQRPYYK
- TEST SUMMARY: TREM2 agonist potency by Syk phosphorylation (AlphaLisa) in HEK293T-hTREM2 cells, used for Examples 306-429
- Assay type: cell-based
- Design: expressed in transfected cells; host or cells: HEK293T (HEK293T-hTREM2 cells)
- RUN PARAMETERS: HEK293 Cells
pEC50: −log10 of the molar value.

Consider the worked cases shown below.
Cc1cnc2c(-c3ccc(C(F)(F)F)nc3)nc(N3CCOC(c4cnn(C5CC5)c4)C3)cc2n1 (stereo not drawn) [Example 340] : 6.30 to 7.30
Cc1cc([C@@H]2C[C@H](c3nc(-c4cc(F)c(Cl)c(F)c4)c4nc(C)c(C)nc4n3)CCO2)ccn1 (racemic) [Example 389] : ≥ 7.30
Cc1cnc2c(-c3ccc(F)cc3F)nc(N3C[C@H](C)O[C@@H](c4cnn(C5CC5)c4)C3)cc2n1 (racemic) [Example 361] : 6.30 to 7.30

// each compound listed below needs its pEC50
1. Cc1nc2nc(N3C[C@@H](C)O[C@@H](c4cnn(C5CC5)c4)C3)nc(C34CC(C(F)(F)F)(C3)C4)c2nc1C [Example 411]
2. Cc1nc2nc(N3CCOC(c4cnn(C5CC5)c4)C3)nc(-c3ccc(Cl)cc3F)c2nc1C (stereo not drawn) [Example 381]
3. Cc1cnc2c(C34CC(C(F)(F)F)(C3)C4)nc(N3C[C@H](C)O[C@@H](c4cnn(C5CC5)c4)C3)nc2n1 (racemic) [Example 355]

**A:**
≥ 7.30
≥ 7.30
6.30 to 7.30

----------
- TGT: hTREM2 (Homo sapiens, UniProt Q9NZC2)
- TEST SUMMARY: TREM2 activity by cellular Syk phosphorylation (AlphaScreen/AlphaLISA) in TREM2/DAP12-HEK cells, used for Examples 1-305
- Type: cell-based
- Parameters: expressed in transfected cells
- RUN PARAMETERS: HEK293 Cells
- Text: In vitro Measurement of Triggering Receptor Expressed on Myeloid Cells 2 activity using cellular phosphorylation of Spleen Tyrosine Kinase (“Syk”) Assays used for Examples 1-305 Pharmacological measurements of TREM2 signaling through DAP12 were made with TREM2 and DAP12 overexpressing HEK293 cells stable cell lines that had been single-cell cloned (“TREM2/DAP12-HEK”). […]
Assignment: determine reported EC50 for the given compounds.

Consider the worked cases shown below.
Cc1nc2nc(N3CCO[C@@H](c4cnn(C)c4)C3)nc(C3CCCCC3)c2nc1C : 0.05 to 0.5 µM
Cc1cnc2c(-c3ccc(Cl)cc3F)nc(N3CCO[C@@H](c4cnc(C)nc4)C3)nc2n1 : 0.05 to 0.5 µM
Cn1cc([C@H]2CN(c3cc(-c4ccc(Cl)cc4F)c4cccnc4n3)CCO2)cn1 : 0.5 to 3 µM
Cc1ccc(-c2nc([C@@H]3CCO[C@H](c4cnn(C)c4)C3)nc3nc(C)c(C)nc23)c(F)c1 (single isomer, unassigned) : 0.5 to 3 µM
Cc1cnc2c(n1)nc(N1CCO[C@@H](c3cnn(C4CC4)c3)C1)nc2[C@H]1C[C@H](C(F)(F)F)C1 : ≤ 0.05 µM

Next item in the queue.
**Q:** Form entry - test system: hTREM2 (Homo sapiens, UniProt Q9NZC2); read-out: EC50; compound: Cc1ccc(-c2nc(N3CCO[C@@H](c4ccnc(C)c4)C3)nc3nc(C)ccc23)c(F)c1
**A:** ≤ 0.05 µM

----------
- TGT: hTREM2 (Homo sapiens)
- TEST SUMMARY: TREM2 agonist potency by Syk phosphorylation (AlphaLisa) in HEK293T-hTREM2 cells, used for Examples 306-429
- Format: cell-based
- Design: expressed in transfected cells; host or cells: HEK293T (HEK293T-hTREM2 cells)
- RUN PARAMETERS: HEK293 Cells
pEC50: −log10 of the molar value.
Assignment: determine reported pEC50 for the given compounds.

Consider the worked cases shown below.
Cc1cnc2c(-c3ccc(F)cc3F)nc([C@H]3CCO[C@H](c4cnn(C5CC5)c4)C3)nc2n1 [Example 339] : 6.30 to 7.30
Cc1cnc2c(-c3ccc(F)cc3F)nc([C@@H]3CCO[C@@H](c4cnn(C5CC5)c4)C3)nc2n1 [Example 338] : 5.52 to 6.30
Cc1nc2cc(N3C[C@@H](C)O[C@@H](c4cnn(C5CC5)c4)C3)nc(-c3ccc(F)cc3F)c2nc1C (racemic) [Example 358] : ≥ 7.30
Cc1cc(C2CC(c3cc4nc(C)ccc4c(-c4ccc(F)cc4F)n3)CCO2)ccn1 (centres unmarked) [Example 326] : ≥ 7.30
Cc1nc2cc(N3C[C@H](C)O[C@@H](c4cnn(C5CC5)c4)C3)nc(C34CC(C(F)(F)F)(C3)C4)c2nc1C (racemic) [Example 378] : 6.30 to 7.30
Cc1cc([C@H]2C[C@@H](c3nc(-c4ccc(Cl)c(F)c4F)c4nc(C)c(C)nc4n3)CCO2)ccn1 [Example 397] : ≥ 7.30
Cc1cc([C@H]2C[C@@H](c3nc(-c4ccc(F)cc4F)c4ccc(C)nc4n3)CCO2)ccn1 (racemic) [Example 323] : ≥ 7.30
Cc1cc([C@@H]2CN(c3nc(C45CC(C(F)(F)F)(C4)C5)c4ncc(C)nc4n3)CCO2)ccn1 [Example 353] : 6.30 to 7.30
Cc1cc(C2CN(c3cc4nc(C)c(C)cc4c(-c4ccc(Cl)cc4F)n3)CCO2)ccn1 (centres unmarked) [Example 344] : ≥ 7.30
Cc1nc2nc([C@@H]3CCO[C@@H](c4cnn(C5CC5)c4)C3)nc(-c3ccc(F)cc3Cl)c2nc1C [Example 321] : 6.30 to 7.30

Next item in the queue.
**Q:** Bench note: what pEC50 did Cc1nc2cc(N3CCO[C@H](c4cnn(C5CC5)c4)C3)nc(-c3ccc(Cl)cc3F)c2nc1C [Example 383] show?
**A:** 6.30 to 7.30

The measured values listed here are drawn from patent US11884675B2.
